- assay-info: pH of purified gabapentin / gabapentin tablets
- Format: physicochemical
- measurement-parameters: gabapentin pure after crystallization in methanol (Examples 11-16: basic agent added)
measurement-label: pH

Look over these answered cases.
# compound, reported
records = [
    ("NCC1(CC(=O)O)CCCCC1 [Example 16, 1-(aminomethyl)-1-cyclohexaneacetic acid]", 7.17),
    ("NCC1(CC(=O)O)CCCCC1 [Example 13, 1-(aminomethyl)-1-cyclohexaneacetic acid]", 7.28),
    ("NCC1(CC(=O)O)CCCCC1 [Example 12, 1-(aminomethyl)-1-cyclohexaneacetic acid]", 7.08),
    ("NCC1(CC(=O)O)CCCCC1 [Example 11, 1-(aminomethyl)-1-cyclohexaneacetic acid]", 7.25),
    ("NCC1(CC(=O)O)CCCCC1 [Example 14, 1-(aminomethyl)-1-cyclohexaneacetic acid]", 7.03),
]

Continue with the next compound.
What value of pH has been reported for the following compound? NCC1(CC(=O)O)CCCCC1 [Example 15, 1-(aminomethyl)-1-cyclohexaneacetic acid] 7.22

---

- assay-info: Storage stability: conversion of gabapentin to its corresponding lactam (HPLC vs. standard)
- Type: physicochemical
- measurement-parameters: gabapentin pure, after a year of storage at 25° C. and 60% relative humidity
measurement-label: conversion of gabapentin to its corresponding lactam

Below are worked cases with known answers.
# compound, reported
measured = [
    ("NCC1(CC(=O)O)CCCCC1 [Example 12, 1-(aminomethyl)-1-cyclohexaneacetic acid]", "≤ 0.2 % by weight of gabapentin"),
    ("NCC1(CC(=O)O)CCCCC1 [Example 4, 1-(aminomethyl)-1-cyclohexaneacetic acid]", "≤ 0.2 % by weight of gabapentin"),
    ("NCC1(CC(=O)O)CCCCC1 [Example 11, 1-(aminomethyl)-1-cyclohexaneacetic acid]", "≤ 0.2 % by weight of gabapentin"),
    ("NCC1(CC(=O)O)CCCCC1 [Example 2, 1-(aminomethyl)-1-cyclohexaneacetic acid]", "≤ 0.2 % by weight of gabapentin"),
    ("NCC1(CC(=O)O)CCCCC1 [Example 1, 1-(aminomethyl)-1-cyclohexaneacetic acid]", "≤ 0.2 % by weight of gabapentin"),
]

Record conversion of gabapentin to its corresponding lactam for all entries; do not skip any.
1. NCC1(CC(=O)O)CCCCC1 [Example 13, 1-(aminomethyl)-1-cyclohexaneacetic acid]
2. NCC1(CC(=O)O)CCCCC1 [Example 3, 1-(aminomethyl)-1-cyclohexaneacetic acid]

≤ 0.2 % by weight of gabapentin
≤ 0.2 % by weight of gabapentin
